Target: T1, HER2 (human epidermal growth factor receptor 2) on cells (human, UniProt P04626 23-1255)
T1 construct: whole, on cells; also called ERBB2; HER2 receptor
Test: flow cytometry (Cy5), MDA-MB-231/HER2 cells, 0.5 h
# percent of cellular association listing for each entry below

{"columns": ["binder", "percent of cellular association"],
 "data": [
  ["BHALys[Lys]2[Lys]4[((α-NH-COPEG24NH-COPEG4(PhMeTz)/TCO-PEG3NH-COPEG24NH-Glu-DBCO/N3-Nanobody)1(α-Lys(α-NHCy5)(ε-NHDFO))1(α-NH2)2)(ε-NH-COPEG1000)4], G2, … (VHH, # (unnatural amino acid, p-azido-phenylalanine, after ...QVTVSS) clicked to the DBCO of linker Compound 51, whose TCO is joined to the tetrazine on the surface of the G2 lysine dendrimer Compound 25 (Cy5, DFO, 4 PEG1000), also called BHA-G2-PEG1000 + NB) VHH: EVQLVESGGSLVQPGGSLRLSCAASGFTFDDYAMSWVRQVPGKGLEWVSSINWSGTHTDYADSVKGRFTISRNNANNTLYLQMNSLKSEDTAVYYCAKNWRDAGTTWFEKSGSAGQGTQVTVSS", "190%"],
  ["BHA[Lys]2[Lys]4[Lys]8[Lys]16[Lys]32[((α-NH-COPEG24NH-COPEG4(PhMeTz)/TCO-PEG3NH-COPEG24NH-Glu-DBCO/N3-Nanobody)1(α-Lys(α-NHCy5)(ε-NHDFO))1(α-NH2)30(ε-NH-COPEG100 … (VHH, # (unnatural amino acid, p-azido-phenylalanine, after ...QVTVSS) clicked to the DBCO of linker Compound 51, whose TCO is joined to the tetrazine on the surface of the G5 lysine dendrimer Compound 29 (Cy5, DFO, 32 PEG1000), also called BHA-G5-PEG1000 + NB) VHH: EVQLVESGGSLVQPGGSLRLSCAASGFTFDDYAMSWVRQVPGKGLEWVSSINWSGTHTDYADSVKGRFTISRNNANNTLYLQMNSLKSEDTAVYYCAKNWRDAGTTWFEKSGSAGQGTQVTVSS", "165%"],
  ["BHALys[Lys]2[Lys]4[Lys]8[((α-NH-COPEG24NH-COPEG4(PhMeTz)/TCO-PEG3NH-COPEG24NH-Glu-DBCO/N3-Nanobody)1(α-Lys(α-NHCy5)(ε-NHDFO))1(α-NH2)6)(ε-NH-COPEG1000)8], G3, … (VHH, # (unnatural amino acid, p-azido-phenylalanine, after ...QVTVSS) clicked to the DBCO of linker Compound 51, whose TCO is joined to the tetrazine on the surface of the G3 lysine dendrimer Compound 27 (Cy5, DFO, 8 PEG1000), also called BHA-G3-PEG1000 + NB) VHH: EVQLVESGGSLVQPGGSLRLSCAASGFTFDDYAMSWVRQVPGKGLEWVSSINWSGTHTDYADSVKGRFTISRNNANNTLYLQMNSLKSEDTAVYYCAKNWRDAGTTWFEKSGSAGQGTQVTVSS", "218%"],
  ["BHA[Lys]2[Lys]4[Lys]8[Lys]16[((α-NH-COPEG24NH-COPEG4(PhMeTz)/TCO-PEG3NH-COPEG24NH-Glu-DBCO/N3-Nanobody)1(α-Lys(α-NHCy5)(ε-NHDFO))1(α-NH2)14(ε-NH-COPEG1000)16], … (VHH, # (unnatural amino acid, p-azido-phenylalanine, after ...QVTVSS) clicked to the DBCO of linker Compound 51, whose TCO is joined to the tetrazine on the surface of the G4 lysine dendrimer Compound 28 (Cy5, DFO, 16 PEG1000), One nanobody on each dendrimer; also called single 2D3-dendrimer conjugate; BHA-G4-PEG1000 + NB) VHH: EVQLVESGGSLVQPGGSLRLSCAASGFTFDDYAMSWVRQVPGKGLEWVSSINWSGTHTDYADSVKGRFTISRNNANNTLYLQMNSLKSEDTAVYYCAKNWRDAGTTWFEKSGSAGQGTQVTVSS", "157%"]
]}
